Tested on: SNB-75 CNS
METHOD DESCRIPTION: NCI tumour cell line growth inhibition, 384-well format
MEASURE NAME: TGI (µM)
Answers are plain numbers, in µM.

Some solved entries appear below for comparison.
C=CC(=O)N[C@H]1CCOC[C@H]1Nc1ncc2cc(-c3c(Cl)c(OC)cc(OC)c3Cl)ccc2n1 = 33.5
O=C(Cc1cccc(OC(F)(F)F)c1)Nc1ccc(CCCCc2nnc(NC(=O)Cc3ccccn3)s2)nn1 = 55.9
Cc1cc(Nc2ncnc3ccc(NC4=NC(C)(C)CO4)cc23)ccc1Oc1ccn2ncnc2c1 = 13.8

Turning now to a further compound:
Known value: SNB-75 CNS TGI of the compound "CC(=O)O/N=C1/C(c2c(O)[nH]c3cc(Br)ccc23)=Nc2ccccc21" equals 2.04
